Value source: patent US4880809A

Tested on: PAF-Induced Hypotension
testName: Inhibitory Action on PAF-Induced Hypotension
Format: in vivo, SD (Jcl) male rats
conditionSet: po; 30 mg/kg p.o., rat, after 1 hr
Description: SD (Jcl) male rats of 6 to 8 week old were subjected to the experiment. After fasting overnight, the rats were cannulated into the femoral artery and vein under anesthesia with pentobarbital. A transducer (MPU-0.5-290O-III, TOYO BALDWIN, Japan) was connected with the artery cannula, and blood pressure was continuously measured. […] The rate of inhibition of lowering of blood pressure after administration of the test samples against the control was evaluated.
Counter-ions that a name gives are not always drawn.
Recorded inhibition in vivo at 30 mg/kg for the following compounds
Give the number; % is assumed, so skip it.

[[record]]
compound = "COc1cc2c(cc1OC)CC(C(=O)N1CCN(C(=O)c3cc(OC)c(OC)c(OC)c3)CC1)CC2 (stereo not shown)"
unitname = "%"
observedmeasurement = 81

[[record]]
compound = "COc1cc(CN2CCN(C(=O)c3ccc4c(c3)C(O)c3ccccc3-4)CC2)cc(OC)c1OC (stereo not shown) [Example 39, hydrochloride]"
unitname = "%"
observedmeasurement = 70

[[record]]
compound = "COc1cc2c(cc1OC)CC(C(=O)N1CCN(C(=O)c3cc(OC)c(OC)c(OC)c3)CC1)=C2"
unitname = "%"
observedmeasurement = 86


Next compound, inhibition in vivo at 30 mg/kg to be filled in.
# input What value of inhibition in vivo at 30 mg/kg on PAF-Induced Hypotension does CCOc1cc2c(cc1OCC)CCC(C(=O)N1CCN(C(=O)c3cc(OC)c(OC)c(OC)c3)CC1)=C2 have?
# output 100

---

System: PAF-Induced Hypotension
testName: Inhibitory Action on PAF-Induced Hypotension
Type: in vivo, SD (Jcl) male rats
conditionSet: po; 30 mg/kg p.o., rat, after 1 hr
Where a name gives a salt, the structure may show the parent alone.
Assign class by inhibition in vivo at 30 mg/kg: not lower than 90% means MET; lower than 90% means NOT MET.

[[record]]
compound = "COc1cc2c(cc1OC)CCCCC(C(=O)N1CCN(Cc3cc(OC)c(OC)c(OC)c3)CC1)=C2 [Example 84, hydrochloride]"
cat = "MET"

[[record]]
compound = "CCOc1cc2c(cc1OCC)CCCC(C(=O)N1CCN(C(=O)c3cc(OC)c(OC)c(OC)c3)CC1)=C2 [Example 73]"
cat = "MET"

[[record]]
compound = "COc1cc2c(cc1OC)CCCC(C(=O)N1CCN(C(=O)c3cc(OC)c(OC)c(OC)c3)CC1)=C2 [Example 62]"
cat = "MET"

[[record]]
compound = "CCOc1c(OC)cc(C(=O)N2CCN(C(=O)C3=Cc4cc(OC)c(OC)cc4CCC3)CC2)cc1OC [Example 75]"
cat = "NOT MET"

[[record]]
compound = "COc1cc2c(cc1OC)CCC(C(=O)N1CCN(C(=O)c3cc(OC)c(OC)c(OC)c3)CC1)=C2 [Example 56]"
cat = "MET"

[[record]]
compound = "CCCOc1cc2c(cc1OCCC)CCC(C(=O)N1CCN(C(=O)c3cc(OC)c(OC)c(OC)c3)CC1)=C2 [Example 66]"
cat = "NOT MET"


# input Is inhibition in vivo at 30 mg/kg for COc1cc(C(=O)N2CCN(C(=O)C3=Cc4ccc(OC)c(OC)c4CCC3)CC2)cc(OC)c1OC [Example 78] at or above 90%?
# output NOT MET

# input Is inhibition in vivo at 30 mg/kg for CCOc1cc2c(cc1OCC)CCCC(C(=O)N1CCN(Cc3cc(OC)c(OC)c(OC)c3)CC1)=C2 [Example 72, hydrochloride] at or above 90%?
# output MET

# input Is inhibition in vivo at 30 mg/kg for COc1cc2c(cc1OC)CCCC(C(=O)N1CCN(C(=S)c3cc(OC)c(OC)c(OC)c3)CC1)=C2 [Example 76] at or above 90%?
# output MET

# input Is inhibition in vivo at 30 mg/kg for COc1cc2c(cc1OC)CCCCC(C(=O)N1CCN(C(=O)c3cc(OC)c(OC)c(OC)c3)CC1)=C2 [Example 85] at or above 90%?
# output MET

# input Is inhibition in vivo at 30 mg/kg for COc1cc2c(cc1OC)CCC(C(=O)N1CCN(Cc3cc(OC)c(OC)c(OC)c3)CC1)=C2 [Example 5, hydrochloride] at or above 90%?
# output NOT MET

# input Is inhibition in vivo at 30 mg/kg for COc1cc2c(cc1OC)CC(C(=O)N1CCN(C(=O)c3cc(OC)c(OC)c(OC)c3)CC1)CCC2 (stereo not drawn) [Example 86] at or above 90%?
# output MET

# input Is inhibition in vivo at 30 mg/kg for CCCOc1cc2c(cc1OCCC)CCC(C(=O)N1CCN(Cc3cc(OC)c(OC)c(OC)c3)CC1)=C2 [Example 60, hydrochloride] at or above 90%?
# output NOT MET

# input Is inhibition in vivo at 30 mg/kg for COc1cc2c(cc1OC)CCCC(C(=O)N1CCN(Cc3cc(OC)c(OC)c(OC)c3)CC1)=C2 [Example 49, hydrochloride] at or above 90%?
# output MET
